# Test system: 898857-211-R-J1-PDC complex spheroids, growth % test/control;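 note: spheroids exposed to compound for seven days before readout; 100% = DMSO vehicle control wells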
# ASSAY PROTOCOL: Anticancer human tumor 898857-211-R-J1-PDC patient-derived melanoma cell line growth inhibition [RAS]
# TEST CONTEXT: second compound 1 µM; first compound 0.00949 µM; stronger effect = lower value
MEASURED ATTRIBUTE: viability, T/C

Q) Read the entry CC1(C)CCC(Nc2ncc(C(F)(F)F)c(-c3c[nH]c4c(P(C)(C)=O)c(C#N)ccc34)n2)CN1 (centres undefined) + C=CC(=O)N1CCN(c2nc(OCC3CCCN3C)nc3c(F)c(-c4nc(N)cc(C)c4C(F)(F)F)c(Cl)cc23)C(C)C1 and write its reported viability, T/C.
A) 29.3%

Q) Read the entry CC1(C)CCC(Nc2ncc(C(F)(F)F)c(-c3c[nH]c4c(P(C)(C)=O)c(C#N)ccc34)n2)CN1 (centres undefined) + C#Cc1c(F)ccc2cc(O)cc(-c3ncc4c(N5CC6CCC(C5)N6)nc(OCC56CCCN5CC(F)C6)nc4c3F)c12 and write its reported viability, T/C.
A) 37.7%

Q) Read the entry CCc1c2c(nc3ccc(O)cc13)-c1cc3c(c(=O)n1C2)COC(=O)[C@]3(O)CC + C#Cc1c(F)ccc2cc(O)cc(-c3ncc4c(N5CC6CCC(C5)N6)nc(OCC56CCCN5CC(F)C6)nc4c3F)c12 and write its reported viability, T/C.
A) 33.9%

Q) Read the entry CCc1c2c(nc3ccc(O)cc13)-c1cc3c(c(=O)n1C2)COC(=O)[C@]3(O)CC + C=CC(=O)N1CCN(c2nc(OCC3CCCN3C)nc3c(F)c(-c4nc(N)cc(C)c4C(F)(F)F)c(Cl)cc23)C(C)C1 and write its reported viability, T/C.
A) 27.8%
